- TESTED_TARGET: human GluN1/GluN2B NMDA receptors (Homo sapiens, UniProt Q13224)
- Sequence (Q13224 27-1484, other chains not shown): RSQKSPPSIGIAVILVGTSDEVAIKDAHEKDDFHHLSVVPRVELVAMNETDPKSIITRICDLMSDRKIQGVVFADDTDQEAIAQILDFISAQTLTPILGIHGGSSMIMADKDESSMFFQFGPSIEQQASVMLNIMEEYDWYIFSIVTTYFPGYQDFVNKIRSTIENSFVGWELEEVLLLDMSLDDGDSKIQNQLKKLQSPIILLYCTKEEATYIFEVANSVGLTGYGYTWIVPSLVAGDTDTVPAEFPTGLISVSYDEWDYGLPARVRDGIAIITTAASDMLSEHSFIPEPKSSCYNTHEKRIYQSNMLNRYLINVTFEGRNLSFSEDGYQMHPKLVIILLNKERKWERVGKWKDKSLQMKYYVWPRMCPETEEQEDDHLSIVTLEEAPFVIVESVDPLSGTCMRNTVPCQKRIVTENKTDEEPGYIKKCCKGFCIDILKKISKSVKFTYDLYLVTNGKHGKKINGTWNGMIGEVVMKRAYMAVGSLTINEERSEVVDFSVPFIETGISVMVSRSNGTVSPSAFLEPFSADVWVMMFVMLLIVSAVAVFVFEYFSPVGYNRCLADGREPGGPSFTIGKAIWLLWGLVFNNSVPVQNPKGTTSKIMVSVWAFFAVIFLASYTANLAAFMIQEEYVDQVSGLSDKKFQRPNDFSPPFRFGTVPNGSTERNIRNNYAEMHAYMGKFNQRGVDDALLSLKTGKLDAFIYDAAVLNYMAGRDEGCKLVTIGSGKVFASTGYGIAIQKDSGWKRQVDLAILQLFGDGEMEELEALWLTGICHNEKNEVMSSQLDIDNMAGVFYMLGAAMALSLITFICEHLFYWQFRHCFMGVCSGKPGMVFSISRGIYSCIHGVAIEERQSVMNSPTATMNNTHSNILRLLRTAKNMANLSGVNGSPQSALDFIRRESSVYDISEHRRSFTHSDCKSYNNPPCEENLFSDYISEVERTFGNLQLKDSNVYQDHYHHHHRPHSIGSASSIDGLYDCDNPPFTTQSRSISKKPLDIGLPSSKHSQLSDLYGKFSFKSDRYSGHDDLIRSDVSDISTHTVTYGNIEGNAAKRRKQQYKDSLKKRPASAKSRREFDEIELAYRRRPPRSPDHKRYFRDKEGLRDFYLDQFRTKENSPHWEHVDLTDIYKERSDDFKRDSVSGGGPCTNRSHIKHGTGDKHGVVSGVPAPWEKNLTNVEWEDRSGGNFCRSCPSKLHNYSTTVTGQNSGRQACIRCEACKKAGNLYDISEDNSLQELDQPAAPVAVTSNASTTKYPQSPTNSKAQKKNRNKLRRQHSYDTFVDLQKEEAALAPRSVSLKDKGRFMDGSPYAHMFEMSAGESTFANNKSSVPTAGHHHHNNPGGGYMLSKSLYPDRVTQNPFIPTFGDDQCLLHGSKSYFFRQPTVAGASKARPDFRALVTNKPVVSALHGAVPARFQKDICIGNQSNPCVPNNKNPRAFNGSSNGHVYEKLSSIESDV
- METHOD_DESCRIPTION: Calcium flux (FLIPR) assay on cloned human NR1/GluN2B ion channels expressed in mammalian cells (standard and HTS variants)
- CONDITION_SET: cells expressing human GluN1/GluN2B, glutamate and glycine co-agonists
Counter-ions that a name gives are not always drawn.
IC50 less than 0.1 µM is label 1; IC50 greater than or equal to 0.1 µM is label 0.

Cc1nnc(Cn2ncc3ncc(-c4ccc(F)c(C(=O)O)c4)cc32)o1    label 0

[Q] API: query returns whether the molecule falls strictly under 0.1 µM in IC50. Query: "Fc1ccc(-c2cnc3cnn(Cc4cccnn4)c3c2)cc1F"
[A] label 0

[Q] Check if IC50 falls below 0.1 µM for "Cc1noc(Cn2ncc3ncc(-c4ccc(F)c(C(F)(F)F)c4)cc32)n1" .
[A] label 0

[Q] State whether 0.1 µM exceeds IC50 recorded for Cc1c(F)ccc(-c2cnc3cnn(Cc4cccnc4)c3c2)c1F [Example 245, trifluoroacetate salt] .
[A] label 1

[Q] is_below(IC50, 0.1 µM) for "Fc1c(-c2cnc3cnn(Cc4cncc(Cl)c4)c3c2)cccc1C(F)F" ?
[A] label 1

[Q] Strictly below 0.1 µM in IC50? "Cc1ccc(Cn2ncc3ncc(-c4ccc(F)c(C(F)F)c4)cc32)s1"
[A] label 0

[Q] Confirm or reject: IC50 of "Cc1cc(-c2cnc3cnn(Cc4cccnn4)c3c2)ccc1Cl" lies strictly below 0.1 µM
[A] label 0

[Q] For this molecule, is IC50 lower than 0.1 µM? Fc1ccc(-c2cnc3cnn(Cc4cccnc4)c3c2)cc1F [Example 187, trifluoroacetate salt]
[A] label 0

[Q] Is IC50 strictly under 0.1 µM for the entry "Cc1noc(Cn2ncc3ncc(-c4cc(F)cc(C(F)(F)F)c4)cc32)n1" ?
[A] label 0

[Q] Strictly below 0.1 µM: is that where IC50 of "Cc1nnc(Cn2ncc3ncc(-c4ccc(C(F)(F)F)s4)cc32)o1" sits?
[A] label 0

[Q] Consider "Cc1nnc(Cn2ncc3ncc(-c4ccc(Cl)c(C(F)F)c4)cc32)o1" . Does its IC50 lie strictly below 0.1 µM?
[A] label 0

[Q] Given "Cc1csc(-c2cnc3cnn(Cc4cccnc4)c3c2)c1" , is recorded IC50 strictly lower than 0.1 µM?
[A] label 0

[Q] Lab note: confirm whether the reported IC50 for this molecule is below 0.1 µM, equality not counting. molecule: "Cc1noc(C)c1Cn1ncc2ncc(-c3ccc(F)c(C(F)F)c3)cc21"
[A] label 1
